- tested-on: T1, major surface antigen 1 (SAG1) of Toxoplasma gondii (Toxoplasma gondii, UniProt P13664 48-336)
- T1 chain: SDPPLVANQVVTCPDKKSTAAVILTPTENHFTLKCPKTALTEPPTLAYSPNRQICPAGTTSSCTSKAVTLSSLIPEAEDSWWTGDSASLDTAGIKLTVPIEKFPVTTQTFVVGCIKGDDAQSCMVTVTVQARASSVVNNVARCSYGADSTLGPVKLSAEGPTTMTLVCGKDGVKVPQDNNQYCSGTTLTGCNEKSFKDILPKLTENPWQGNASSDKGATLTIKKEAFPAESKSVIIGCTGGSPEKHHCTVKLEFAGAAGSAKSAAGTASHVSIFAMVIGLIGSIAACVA
- assay-procedure: SPR; two-state fit (KDapp)
reported-metric: Kd

## Input Look up and state reported Kd for scFv S1D4 (scFv, V domains shown) VH: QVQLQQSGAELVRPGTSVKISCKASGYTFTDYGMHWVKQRPGHGLEWIGIISTYSGDASYNQKFKGKATMTVDKSSSTAYMQLSSLTSEDSAVYYCARSSTWYYFDYWGQGTLVTVSA VL: DIQMTQTPSSLSASLGDRVTISCRASQDISNYLNWYQQKPDGTVKLLIYYTSRLHSGVPSRFSGSGSGTDYSLTISNLEPEDIATYYCQQGNTLPYTFGGGTKLEIK
## Output 0.36 µM
